system: ryegrass, Italian; experiment: Test C preemergence; assay type: in vivo, Lolium multiflorum; details: Preemergence, 500 g ai/ha; visual rating after 10 days, 0 to 100 scale (0 no effect, 100 complete control)
measured.endpoint: Plant response rating, Ryegrass, Italian

molecular.string	Plant response rating, Ryegrass, Italian
CCc1c(F)cc(-n2cnc(C(C)C)n2)cc1C(=O)N1C[C@H](C)Oc2c(Cl)cccc21	90
COC[C@H]1CN(C(=O)c2cc(-n3cncn3)ccc2C)c2cccc(Cl)c2O1	90

INPUT: I'd like to know its Plant response rating, Ryegrass, Italian. The molecule in question is `Cc1c(F)cc(-n2cnc(C(C)C)n2)cc1C(=O)N1C[C@H](C)Oc2c(Cl)cccc21`
OUTPUT: 90

Where these numbers come from: patent US20260262643A1
